This collection of values is drawn from ChEMBL document CHEMBL4715694.

# procedureSummary: in vitro
# protocolConditions: rat, liver microsomes
measuredEndpoint: remaining at 0.5 h, 1 µM (%)

| sampleSmiles | outputUnit | reportedResult |
| --- | --- | --- |
| Cc1cc(Nc2ncc(Cl)c(Nc3ccccc3S(=O)(=O)C(C)C)n2)c(OC(C)C)cc1C1CCNCC1 | % | 98 |

----------
# procedureSummary: in vivo
# protocolConditions: rat, po, 10 mg/kg

| sampleSmiles | Cmax |
| --- | --- |
| Cc1cc(Nc2ncc(Cl)c(Nc3ccccc3S(=O)(=O)C(C)C)n2)c(OC(C)C)cc1C1CCNCC1 | 90 ng/mL |
